- Tested on: LOC_OS01G60700-cb002;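 note: purified Escherichia coli-expressed rice kinase domain construct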
- ASSAY_PROTOCOL: thermal shift delta Tm vs DMSO control; higher = stronger stabilization (binding)
- APPLIED_CONDITIONS: 12.5 µM; protein concentration 2 µM
Mark label 0 for thermal shift delta Tm values under 1 °C, and label 1 for everything at or above.

# count of solved cases: 6
>  <COMPOUND_SMILES>
COc1ccc(CCNCc2ccc(OCc3ccc(Cl)nc3)c(OC)c2)cc1OC

>  <ASSIGNED_CLASS>
label 0

$$$$
>  <COMPOUND_SMILES>
FC(F)c1nc2ccccc2n1-c1nc(N2CCOCC2)nc(N2CCOCC2)n1

>  <ASSIGNED_CLASS>
label 1

$$$$
>  <COMPOUND_SMILES>
C[C@H](NC(=O)/C(C#N)=C/c1cccc(Br)n1)c1ccccc1

>  <ASSIGNED_CLASS>
label 0

$$$$
>  <COMPOUND_SMILES>
Cc1nc(Nc2cnn(C3CCNCC3)c2)nc2c1N(C)C(=O)c1cc3ccccc3cc1N2C

>  <ASSIGNED_CLASS>
label 0

$$$$
>  <COMPOUND_SMILES>
Cn1cc(C2=C(c3ccc(Cl)cc3Cl)C(=O)NC2=O)c2ccccc21

>  <ASSIGNED_CLASS>
label 1

$$$$
>  <COMPOUND_SMILES>
O=C1Nc2ccccc2/C1=C1/Nc2ccccc2C1=O

>  <ASSIGNED_CLASS>
label 1

$$$$

Check this compound for thermal shift delta Tm at or above 1 °C: `Cc1cc(Nc2cc(N3CCN(C)CC3)nc(Sc3ccc(NC(=O)C4CC4)cc3)n2)n[nH]1` label 1

Does the reported thermal shift delta Tm for `O=C(O)[C@]1(Cc2cccc(Nc3nccs3)n2)CC[C@@H](Oc2cccc(Cl)c2F)CC1` fall at or above the 1 °C mark? label 0

I'd appreciate it if you could say whether `COc1cc2ncnc(Nc3ccc(Cl)cc3F)c2cc1OC` has thermal shift delta Tm at least equal to 1 °C. label 1

Hi, just wondering whether `C[C@H](Nc1ncnc2nc[nH]c12)c1cc2cccc(Cl)c2c(=O)n1-c1ccccc1` shows thermal shift delta Tm of 1 °C or higher. label 1

Decide: is the reported value of thermal shift delta Tm for `Cc1ccc(NC(=O)c2cccc(C(C)(C)C#N)c2)cc1Nc1ccc2ncn(C)c(=O)c2c1` equal to or greater than 1 °C? label 1

Given `Cc1cc(NC(=O)c2cccc(NC(=O)/C=C/CN(C)C)c2)ccc1Nc1nccc(-c2cccnc2)n1` , state whether its thermal shift delta Tm is at least 1 °C. label 1
